List of IC50 values.
molecular target: VIM-2 (Escherichia coli); assay: MBL inhibition, FC-5 fluorescence assay, VIM-2; format: biochemical; settings: FC-5 cephalosporin substrate, ranges of obtained pIC50, read-out: pIC50 VIM-2 (converted)

Example entries and their recorded answers appear below.
compound	IC50
CC(Nc1ncc(CCN)o1)c1cccc2c(-c3ccc(CS(C)(=O)=O)c(F)c3)c(C(=O)O)[nH]c12 (centres unmarked)	1 to 10 nM
CC(NS(C)(=O)=O)c1cccc2c(-c3cc(Cl)cc(Cl)c3)c(C(=O)O)[nH]c12 (centres unmarked)	> 10 nM
CC(c1cccc2c(-c3ccc(CS(C)(=O)=O)c(F)c3)c(C(=O)O)[nH]c12)n1cc(CN2CC[C@H](N)C2)oc1=O (some centres unmarked)	1 to 10 nM

Problem: For the compound C[C@@H](c1cccc2c(-c3ccc(NS(C)(=O)=O)c(C#N)c3)c(C(=O)O)[nH]c12)N1C[C@]2(C[C@@H](CN)C2)OC1=O , report IC50.
Result: 0.1 to 1 nM

Problem: For the compound C[C@@H](c1cccc2c(-c3ccc(NS(C)(=O)=O)c(C#N)c3)c(C(=O)O)[nH]c12)n1cc(CN2CC(N)C2)oc1=O , report IC50.
Result: 0.1 to 1 nM
